assayMethodText: Assay C: Hepatocyte clearance
Assay type: in vitro ADME, human
conditionParameters: hepatocyte suspension, 1 μM test compound
Description: Assay C: Hepatocyte Clearance The metabolic degradation of the test compound is assayed in a hepatocyte suspension. Hepatocytes (cryopreserved) are incubated in. Dulbecco's modified eagle medium (supplemented with 3.5 μg glucagon/500 mL, 2.5 mg insulin/500 mL and 3.75 mg/500 mL hydrocortison) containing 5% or 50% species serum. […] Decline of parent compound is analyzed by HPLC-MS/MS CLint is calculated as follows CL_[…]=Dose/AUC=(C0/CD)/(AUD+clast/k)×1000/60. […]
quantityName: human Hepatocytes [% Qh] (% Qh)
Output spec: scalar in % Qh, unitless text.

Solved entries:
[
  {
    "molecule": "CNC(=O)c1sc2ncn(Cc3nnn(C[C@H](O)c4ccc(Cl)cc4)n3)c(=O)c2c1C",
    "unitAnnotation": "% Qh",
    "human Hepatocytes [% Qh]": 9
  },
  {
    "molecule": "N#Cc1ccc([C@@H](O)Cn2nnc(Cn3cnc4sc5c(c4c3=O)CCNC5=O)n2)s1",
    "unitAnnotation": "% Qh",
    "human Hepatocytes [% Qh]": 5
  },
  {
    "molecule": "NC(=O)c1sc2ncn(Cc3nnn(C[C@H](O)c4ccc(Cl)cc4)n3)c(=O)c2c1Cl",
    "unitAnnotation": "% Qh",
    "human Hepatocytes [% Qh]": 12
  },
  {
    "molecule": "CNC(=O)c1sc2ncn(Cc3nnn(C[C@H](O)c4ccc(Cl)s4)n3)c(=O)c2c1C",
    "unitAnnotation": "% Qh",
    "human Hepatocytes [% Qh]": 17
  },
  {
    "molecule": "Cc1c(C(N)=O)sc2ncn(Cc3nnn(C[C@H](O)c4cc5ccc(Cl)cc5o4)n3)c(=O)c12",
    "unitAnnotation": "% Qh",
    "human Hepatocytes [% Qh]": 36
  }
]

human Hepatocytes [% Qh] lookup needed for Cc1c(C(N)=O)sc2ncn(Cc3nnn(C[C@H](O)c4ccc(Cl)cc4)n3)c(=O)c12 , thanks.
12

human Hepatocytes [% Qh] lookup needed for O=C1NCCc2c1sc1ncn(Cc3nnn(C[C@H](O)c4cc5cc(F)ccc5o4)n3)c(=O)c21 , thanks.
26

----------
assayMethodText: Assay C: Hepatocyte clearance
Format: in vitro ADME, human
conditionParameters: hepatocyte suspension, 1 μM test compound
quantityName: human Hepatocytes [% Qh] (% Qh)
Output spec: scalar in % Qh, unitless text.

Solved entries:
[
  {
    "molecule": "Cc1ccc([C@@H](O)Cn2nnc(Cn3cnc4sc(C(N)=O)c(C)c4c3=O)n2)cc1",
    "human Hepatocytes [% Qh] [% Qh]": 16
  },
  {
    "molecule": "Cc1c(C(N)=O)sc2ncn(Cc3nnn(C[C@H](O)c4ccc(Cl)s4)n3)c(=O)c12",
    "human Hepatocytes [% Qh] [% Qh]": 7
  },
  {
    "molecule": "Cc1c(C(N)=O)sc2ncn(Cc3nnn(C[C@H](O)c4ccc(Br)cc4)n3)c(=O)c12",
    "human Hepatocytes [% Qh] [% Qh]": 13
  },
  {
    "molecule": "Cc1c(C(N)=O)sc2ncn(Cc3nnn(C[C@H](O)c4cc5cc(F)ccc5o4)n3)c(=O)c12",
    "human Hepatocytes [% Qh] [% Qh]": 28
  },
  {
    "molecule": "O=C1NCCc2c1sc1ncn(Cc3nnn(C[C@H](O)c4ccc(Cl)cc4)n3)c(=O)c21",
    "human Hepatocytes [% Qh] [% Qh]": 7
  },
  {
    "molecule": "CNC(=O)c1sc2ncn(Cc3nnn(C[C@H](O)c4ccc(C)cc4)n3)c(=O)c2c1C",
    "human Hepatocytes [% Qh] [% Qh]": 18
  },
  {
    "molecule": "Cc1c(C(N)=O)sc2ncn(Cc3nnn(C[C@H](O)c4cc5ccccc5s4)n3)c(=O)c12",
    "human Hepatocytes [% Qh] [% Qh]": 44
  }
]

Moving on to the next molecule.
human Hepatocytes [% Qh] lookup needed for Cc1c(C(N)=O)sc2ncn(Cc3nnn(C[C@H](O)c4cc5ccc(F)cc5o4)n3)c(=O)c12 , thanks.
31
